system: T1, rat VPAC2 receptor (rat, UniProt P35000 23-437)
T1 sequence (looked up): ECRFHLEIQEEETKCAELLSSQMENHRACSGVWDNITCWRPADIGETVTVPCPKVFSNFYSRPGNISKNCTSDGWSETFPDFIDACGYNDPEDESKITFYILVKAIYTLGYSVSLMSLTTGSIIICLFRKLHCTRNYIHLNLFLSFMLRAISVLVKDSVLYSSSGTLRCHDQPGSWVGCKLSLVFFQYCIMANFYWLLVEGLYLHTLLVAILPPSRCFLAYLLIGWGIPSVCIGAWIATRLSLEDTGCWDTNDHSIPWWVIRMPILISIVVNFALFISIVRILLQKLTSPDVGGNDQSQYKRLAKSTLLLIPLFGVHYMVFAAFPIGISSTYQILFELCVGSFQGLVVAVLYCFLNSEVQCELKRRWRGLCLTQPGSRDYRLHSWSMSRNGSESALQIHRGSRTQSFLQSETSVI
protocol summary: cell-based or functional assay
Where no end group is shown, it is not given here. [ ]: non-standard residue; d: D form. The star is where a group is joined. hArg = N=C(N)NCCCC[C@H](N)C(=O)O; Hexanoyl = CCCCCC(=O)*; Aib = CC(C)(N)C(=O)O
EC50 cAMP, DiscoveRx less than 0.1 nM is True; EC50 cAMP, DiscoveRx greater than or equal to 0.1 nM is False.

Query: In plain terms, does Hexanoyl-HSEAVFTENYTRLR[Aib]QVAA[Aib]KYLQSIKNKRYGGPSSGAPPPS (ends and bridges not checked) [P314] come in under 0.1 nM for EC50 cAMP, DiscoveRx?
Response: False

Query: In plain terms, does HSDAVFTDNYTXLRXQVAAXKYLQSIXNXGGPSSGAPPPS (N-terminal hexanoyl (C6); hR at 12, 27, 29; Aib at 15, 20) [P329] come in under 0.1 nM for EC50 cAMP, DiscoveRx?
Response: False

Query: In plain terms, does Hexanoyl-HSDAVFTDNYTRL[hArg]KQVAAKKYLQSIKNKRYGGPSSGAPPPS (ends and bridges not checked) [P305] come in under 0.1 nM for EC50 cAMP, DiscoveRx?
Response: True

Query: In plain terms, does Hexanoyl-HSDAVFTDNYTRLR[Aib]QLAAK[Aib]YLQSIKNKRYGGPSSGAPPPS (ends and bridges not checked) [P284] come in under 0.1 nM for EC50 cAMP, DiscoveRx?
Response: True

More entries:
Query: In plain terms, does Hexanoyl-HSDAVFTDNYTRLQKQVAAKKYLQSIKNKRYGGPSSGAPPPS [P172] come in under 0.1 nM for EC50 cAMP, DiscoveRx?
Response: False

Query: In plain terms, does Hexanoyl-HGEGTFTDNYTRLRKQVAAKKYLQSIKNKRYGGPSSGAPPPS [P222] come in under 0.1 nM for EC50 cAMP, DiscoveRx?
Response: False

Query: In plain terms, does Hexanoyl-HSDAVFTDNYTRLR[Aib]KVAA[Aib]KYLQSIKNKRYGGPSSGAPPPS (ends and bridges not checked) [P321] come in under 0.1 nM for EC50 cAMP, DiscoveRx?
Response: True
